assay explanation: yeast display, Sf9 membrane polyspecificity reagent, FACS + sequencing; frameworks hold sequencing errors
measured quantity: polyreactivity (PSR sort gate)

ordered residues	result
QVQLVESRGGLVQAGGSLRLSCAASGSTCFTNDMGWYRQAPGTERELVASISPSTGSTYYADSVKGRVTISRDNAKNTVSLQMNSLKPDDTAVYYCAADEWYYSYNDGNLYDYWGQGTQVTVSS	low polyreactivity
QVQLVESGGGLVQAGGSLRLSCAASGRIIEYYAMGWYRQAPGKERELVAAISSGGSTYYADSVKGRFTISRDNAKNTVYLQMNSLKPEDTAVYYCNTRYVYTRGGPLKRDYWGQGTQVTVSS	high polyreactivity
QVQLVESGGGLVQAGGSLRLSCAASGSIFAHYTMGWYRQAPGKERELVASISYRATRTHYADSVKGRFTISRDNAKNTVYLQMNSLKPEDTAVYYCNKGGYPGLQWGNYPPYRSKDDYWGQGTQVTVSS	high polyreactivity
QVQLVESGGGLVQAGGSLRLSCPASGSIVGYYVMGWYRQAPGKERELVAAISWSSGSTYYADSVKGRFTISRDNAKNTVYLQKNSLKPEDTAVYYCNASNVYFWFVTLEFDYWGQGTQVTVSS	low polyreactivity
QVQLVESGGGLVQAGGSLRLSCAASGRIFAPYAMGWYTQAPGKERELVAAISFSGGSTHYADSVKGRFTISRDNAKNTVYLQMNSLKPEDTAVYYCAAGWRSRLYRFGYWGQGTQVTVSS	high polyreactivity
QVQLVESGGGLVQAGGSLRLICAASGRTFTYYDMGWYRQAPGKERELVAGITARGGSTYADSVKGRFTISRDNAKNTVYLQMNSLKPEDTAVYYCAADLYTSLDSTYDYWGQGTQVTVSS	low polyreactivity
QVQLVESGGGLVQAGGSLRLSCAASGSIFRYNAMGWYRQAPGKERELVAAISASGGRTHYADSVKGRFTISRDNAKNTVYLQMNSLKPEDTAVYYCAAATYRGTSLYGYWGQGTQVTVSS	high polyreactivity
QVQLVESGGGLVQAGGSLRLSCAASGLTFSYNAMGWYIQAPGTERELVAAINWSGGSTYYADSVKGRFTISRDNAKNTVYLPMNSLKPEDTAVYYCAADIYSKGGRGLYYWGQGTQLTVSS	high polyreactivity

Input line: What polyreactivity (PSR sort gate) value was documented for this sequence, QVQLVESGGGLVQAGGSLRLSCAASGRTFTGNTMGWYRQAPGKERELVAAISSSGGRTYYADSVKGRFTISRDNAKNTVYLQMNSLKQVDTAVYYCNATIWRTQYGYWGQGTQVTVSS ?
Output line: high polyreactivity

Input line: Given the entry QVQLVESGGGLVQAGGSLRLSCAASGSTFVYYAMGWYRQAPGKERELVAAINYSSGSTYYADSVKGRFTISRDNAKNTVYLQMNSLKPEDTAVYYCATDLLYYQYYSDYDYWGQGTQVTVSS , report its measured polyreactivity (PSR sort gate).
Output line: high polyreactivity

Input line: Give the measured polyreactivity (PSR sort gate) of QVQLVESGGGLVQAGGSLRLSCAASGITFYSYAMGWYRQAPGKEREFVAAINWRGGNTYYADSVKGRFTISRDNAKNTVYLQMNSLKPEDTAFYYCARDGIYAYWVDPYDYWGQGTQVTVSS .
Output line: high polyreactivity

----------
assay explanation: yeast display, Sf9 membrane polyspecificity reagent, FACS + sequencing; frameworks hold sequencing errors
measured quantity: polyreactivity (PSR sort gate)

// solved cases for polyreactivity (PSR sort gate) follow
ordered residues	result
QVQLVESGGGLVQAGGSLRLSCAASGSTFTAYAMGWYRQATREDRELVARIGGTYYADSVKGRFTISRDNAKNTVYLQMNSLKPEDTAVYYCAAEYGYDFFRSYQEYGYWGQGTQVTVSS	low polyreactivity
QFQLVESGGGLVQAGGSLRLSCAASGSIFPGYAMGWYRQAPGKERELVAAITVSGVSTYYADSVKGRFTISRDNEKNTVYLQMNSLKPEDTAVYYCARDNWQLYPSTWYDYWGQGTQVNVSS	high polyreactivity
QVQLVESGGGLVQAGGSLRLSCAASGRTFYEYAMGWYRQAPGKERELVAAITRSGGSTYYADSVKGRFTISRDNAKNTVYLQMNSLKPEDTAVYYCAAYRLQYRVRYYTAYDYWGQGTQVTVSS	high polyreactivity
QVQLVESGGGLVHAGGSHRLSCAASGLIFYDNMGWYRQAPGKERELVAAISSSGGSTSYADSVKGRFTISRDNAKNTVYLQMNSLKPEDTAVYYCAADSYPAYLGFVGFDYWGQGTQVTVSS	low polyreactivity

Input line: Which polyreactivity (PSR sort gate) value belongs to QVQLVESGGGLVQAGGSLRLSCAASGIIFIGNAMGWYRQAPGKERELVAAISSDGDSTYYADSVKGRFTISRDNAKNTVYLQMNSLKPEDTAVYYCAKDYYPDYYGLYLWPFDYWGQGTQVTVSS ?
Output line: high polyreactivity

----------
assay explanation: yeast display, Sf9 membrane polyspecificity reagent, FACS + sequencing; frameworks hold sequencing errors
measured quantity: polyreactivity (PSR sort gate)

ordered residues	measured quantity	result
QVQLVESGVGLVQAGGSLRLSCAASGLTFLYYAMAWLRQAPGKERELVAVISSGGRTYYADSVKGRFTISRDNAKNTVYLQMHSLKPEDTAVYYCAAYDPYYQSTFDYWGQGTQVTVSS	polyreactivity (PSR sort gate)	high polyreactivity
QVQLEESGGGLVQAGGSLRLSCAASGSTLGYNVMGWYRQAPGKERELVAAISGDGSTNYADSVKGRFTISRDNAKNTVYLQMNSLKPEDTAVYYCAADTYGGSRDYWGQGTQVTVSS	polyreactivity (PSR sort gate)	low polyreactivity
QLQLVESVRGLVQAGGSLRLSCAASGGIFDTYAKGWYRQAPCKERELVASISRSGSTNYADSVKGRFTISRDNAKNTVYLQMNSLKPEDSAVYYCAADVFYSIYDYWGQGTQVTVSS	polyreactivity (PSR sort gate)	low polyreactivity
QVQLVESGGGLVQAGGSLRLSCAASGRIFGIYAMGWYRQAPGKERELVAAINSGDSTYADSVKGRFTISRDNAKNTVYLQMNSLKPEDTAVYYCAAEESTSSWSINDYWGQGTQVNVSS	polyreactivity (PSR sort gate)	low polyreactivity
QVQLVESGGGLVQAGGSLRLSCAASGFTFYSYAMGWYRQAPGKEREFVAAGSTYYADSVKGRFTISRGNAKNTVYLQMNSLKPEDTAVYYCAADPWIYVQSYGYWGQGTQVTVSS	polyreactivity (PSR sort gate)	low polyreactivity

Input line: Which polyreactivity (PSR sort gate) value is on record for QVQLVESGGGLVQAGGRLRLSCAASGSTFRYYALGWYRQAPGKERELVAVISSTGSRTNYADSVKGRFTISRDNAKNTVYLQMNSLKPEHTAVYYCAADTTRRAPGYYYWGQGTQETVSS ?
Output line: high polyreactivity

Input line: Suppose we examine the sequence QVQLVESGGGLVQAGGSLRLSCAASGFTFGVYAMGWYRQAPGKERELVAAISRSSGRTYYADSVKGRFTISRDNAKNTVYLQMNSLKPVDTAVYYCAADLRYYGYYTRFRYYEMDYWGQGTQVTVSS ; what polyreactivity (PSR sort gate) value has been reported?
Output line: high polyreactivity

Input line: Query: polyreactivity (PSR sort gate); subject: QVQLVESGGGLVQAGGSLRLSCAASGTFGYYTMGWYRQAPGHERELVAAITRSGGSTYDADSVKGRFTISRDNAKNTVYLQMNSLKPEDTAVYYCATELHAWSSWNRYRAYYYWGQGTQVTVSS
Output line: high polyreactivity

Input line: Which polyreactivity (PSR sort gate) value is on record for QVQLVESGGGLVQAGGSLRLSCAASGYTFRAYVMGWYRQAPGKERELVAGITRRGGTTYYADSVKGRFTISRDNAKNTVYLQMNSLKTEDTAVYYCNAVYRSGSIPYDSWGQGTQVTVSS ?
Output line: high polyreactivity

Input line: Requested field: polyreactivity (PSR sort gate). Item: QVQLVESGGGFVQAGGSLRLSCAASGIIFDYNAMGWYRQAHGKERELVAAISGRSGRTYYADSVKGRFTISRDNAKNTVYLQMNSLKPEDTAVYYCAARWYAGGNYWGQGTQVTVSS
Output line: high polyreactivity

Input line: Name the reported polyreactivity (PSR sort gate) value associated with the sequence QVQLVESGGGLVQAGGSLRLSCAASGRTFPYNAMGWYRQAPGKERELVAAITSSGGSTYYADSVKGRFTISRDNAKNTVYLQMNSLKPEDTAVYYCAKGYYSPNYYYWGQGTQVTVSS
Output line: high polyreactivity

----------
assay explanation: yeast display, Sf9 membrane polyspecificity reagent, FACS + sequencing; frameworks hold sequencing errors
measured quantity: polyreactivity (PSR sort gate)

Below are worked cases with known answers.
ordered residues	result
QVQLVESGGRLVQAGRSLRLSCAASGGTFQRYVMGWYRQAPGKERELVAAISRSGSTYADSVKGRFTISRDNAKNTGYLQMNSLKPEDTAVYYCNVVRYYRYYLHGYDYWGQGTQVTVSS	high polyreactivity
QVQLVESGGGLVQAGGSLRLSCAASGRIIRQYAMGWYRKAPGKERELVAVISAGGARTYYADSVKGRFTISRDNAKNTVYLQMNSLKPEDTEVYYCAAELPTSQYDYYYWGQGTQVTVSS	high polyreactivity
QVQLVESGGGLVQAGGSLRLSCAASGRTFFGYAMGWYRQAPGKERELVAAITSSGGRTYYADSVKGRFTISRDNAKNTVYLQMNSLKPEDTAVYYCNTVLSFRSVNIYRGRGDYWGQGSQVTVSS	high polyreactivity
QVQLLESGGGLVQAGGSLRLSCAASGSIFLFYDMGLYRHAPGKERELVATITSGTNTYADSVKGRFTISRDNAKNTGYLQMNSLKPEDTAVYSCAAGFSTASQLDYWGQVTQVTVSS	low polyreactivity

Input line: Please look up its polyreactivity (PSR sort gate): QFQLEESGGGLVQAGGSLRLSCAASGITFVDYAMGWYRQAPGKERELVAAITTGGSTNYADSVKGRFTISRDNAKNTVYLQMNSLKPEDTAVYYCNKRPVILYDYWGQGTQVTVSS
Output line: low polyreactivity

Input line: Fill in: polyreactivity (PSR sort gate) of QGQLVESAGGLVQAAGSLRLSCAASGITFHYYAMGWYRQAPGKERELVAAIDGSDTDTYYADSVKGRFTISRDNAKNTVYLQMNSLKQEDTAVYYCAAEYTYAALARNDDYWGQCTQVTVSS is ___
Output line: high polyreactivity

Input line: Please give the measured polyreactivity (PSR sort gate) for this sequence: QVQLVESGGGLVQAGGSLRLSCAASGSTFYINAMGWYRQAPGKEREFVAAITSRGGSTYYADSVKGRFTISRDNAKNTVYLQMNSLKPEDTAVYYCAARNFLSRRGTYDYWGQGTQVTVSS
Output line: high polyreactivity
